The measurements presented in this section are drawn from patent US8487108B2.

Test Target: plasma renin activity (PRA) in pooled mixed-gender human plasma (Homo sapiens, UniProt P00797)
Construct: pooled mixed-gender human plasma stabilized with EDTA; from tissue; host or cells: pooled mixed-gender human plasma (EDTA)
Measurement Protocol: Plasma renin activity (PRA) assay in human plasma
Format: biochemical
Test Conditions: compounds of Formula (L)
Collected IC50 values appear next to each entry.

Molecule: CNC[C@@H](CC1CCCOC1)NC(=O)N1CCC[C@@H]([C@@H](OCCNC(=O)OC)c2cc(F)cc(Cl)c2)C1 (single isomer, unassigned) [Example L-3d]
IC50: < 20 nM

Continue with the next molecule.
Summary for this molecule, CNC[C@@H](CC1CCCOC1)NC(=O)N1CCC[C@@H]([C@@H](OCCNC(=O)OC)c2cc(F)cc(Cl)c2)C1 (single isomer, unassigned) [Example L-3c] : IC50 is < 10 nM

* * *

Test Target: plasma renin activity (PRA) in pooled mixed-gender human plasma (Homo sapiens)
Construct: pooled mixed-gender human plasma stabilized with EDTA; from tissue; host or cells: pooled mixed-gender human plasma (EDTA)
Sequence (P00797 67-406): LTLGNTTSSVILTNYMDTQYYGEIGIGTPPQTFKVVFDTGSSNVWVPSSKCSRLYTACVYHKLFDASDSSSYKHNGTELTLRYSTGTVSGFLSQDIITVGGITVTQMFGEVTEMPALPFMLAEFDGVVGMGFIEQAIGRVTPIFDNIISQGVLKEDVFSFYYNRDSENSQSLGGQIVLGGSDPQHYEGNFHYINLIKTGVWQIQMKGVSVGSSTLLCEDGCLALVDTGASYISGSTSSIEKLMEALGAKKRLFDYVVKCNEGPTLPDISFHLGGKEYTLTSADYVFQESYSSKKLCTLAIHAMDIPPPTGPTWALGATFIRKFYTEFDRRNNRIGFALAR
Measurement Protocol: Plasma renin activity (PRA) assay in human plasma
Assay type: biochemical
Test Conditions: compounds of Formula (XL)
pIC50: −log10 of the molar value.
Reported Metric: pIC50

Example entries begin here.
Line Notation: COC(=O)NCCO[C@@H](c1cc(F)ccc1C)[C@@H]1CCCN(C(=O)NC[C@@H](N)C[C@H]2CCCOC2)C1
pIC50: > 7.30
--
Line Notation: COC(=O)NCCO[C@@H](c1cccc(F)c1)[C@@H]1CCCN(C(=O)NC[C@@H](N)C[C@H]2CCCOC2)C1
pIC50: > 7.70
--
Line Notation: COC(=O)NCCO[C@@H](c1cccc(Cl)c1)[C@@H]1CCCN(C(=O)NC[C@@H](N)C[C@H]2CCCOC2)C1
pIC50: > 8.00
--
Line Notation: COC(=O)NCCO[C@@H](c1cc(F)cc(Cl)c1)[C@@H]1CCCN(C(=O)NC[C@@H](N)C[C@H]2CCCOC2)C1
pIC50: > 8.00
--
Line Notation: CN[C@H](CNC(=O)N1CCC[C@@H]([C@@H](OCCNC(=O)OC)c2cccc(Cl)c2)C1)C[C@H]1CCCOC1
pIC50: > 8.00
--
Line Notation: COC(=O)NCCO[C@@H](c1cc(F)cc(F)c1)[C@@H]1CCCN(C(=O)NC[C@@H](N)C[C@H]2CCCOC2)C1
pIC50: > 8.00
--
Line Notation: CN[C@H](CNC(=O)N1CCC[C@@H]([C@@H](OCCNC(=O)OC)c2cc(Cl)ccc2C)C1)C[C@H]1CCCOC1
pIC50: > 8.00

Summary for this molecule, COC(=O)NCCO[C@@H](c1cc(Cl)ccc1C)[C@@H]1CCCN(C(=O)NC[C@@H](N)C[C@H]2CCCOC2)C1 : pIC50 is > 9.00
